biological target: S1P3 (Homo sapiens); assay: Receptor binding assay, [33P]sphingosine 1-phosphate competition, membranes of CHO cells expressing S1P3; details: 96 well plate; read-out: S1P3 Binding Ki [M] (96 well plate)
Sequence (Q99500 whole entry, species assumed): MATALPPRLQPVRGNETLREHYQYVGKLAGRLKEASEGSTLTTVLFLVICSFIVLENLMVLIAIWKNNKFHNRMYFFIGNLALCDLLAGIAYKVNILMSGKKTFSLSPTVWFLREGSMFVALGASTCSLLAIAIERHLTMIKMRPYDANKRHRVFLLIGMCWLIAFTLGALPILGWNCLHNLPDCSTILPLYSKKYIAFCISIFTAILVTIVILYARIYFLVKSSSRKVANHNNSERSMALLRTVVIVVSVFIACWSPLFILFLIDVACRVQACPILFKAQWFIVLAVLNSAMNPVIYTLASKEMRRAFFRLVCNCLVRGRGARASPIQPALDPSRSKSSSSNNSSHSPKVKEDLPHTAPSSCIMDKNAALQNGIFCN
Structures can show the parent of a compound that is named as a salt.
ASSAY_ENDPOINT: Ki (M)

// solved cases for Ki follow
[
  {
    "COMPOUND": "COCc1cc(-c2nc(-c3ccc([C@@H](C)N(C)CC(=O)O)cc3)no2)ccc1-c1ccccc1C [Example 97, hydrochloride salt]",
    "Ki (M)": "4.8e-07"
  },
  {
    "COMPOUND": "COCc1cc(-c2nc(-c3ccc(CN(C)C(C)(C)C(=O)O)c(F)c3)no2)ccc1-c1ccccc1C [Example 43, hydrochloride salt]",
    "Ki (M)": "3.15e-06"
  },
  {
    "COMPOUND": "Cc1ccccc1-c1ccc(-c2nc(-c3ccc([C@@H](CO)N[C@H](C)C(=O)O)cc3)no2)cc1C(F)(F)F (single isomer, unassigned) [Example 99, hydrochloride salt]",
    "Ki (M)": "2.3e-06"
  },
  {
    "COMPOUND": "COCc1cc(-c2nc(-c3ccc([C@@H](C)NCC(=O)O)cc3)no2)ccc1-c1ccccc1C [Example 9, hydrochloride salt]",
    "Ki (M)": "7.7e-07"
  }
]

[a] Cc1ccccc1-c1ccc(-c2nc(-c3ccc([C@@H](C)N[C@H](C)C(=O)O)cc3)no2)cc1C(F)(F)F [Example 20, hydrochloride salt]
[b] Cc1ccccc1-c1ccc(-c2nc(-c3ccc([C@H](CO)N[C@H](C)C(=O)O)cc3)no2)cc1C(F)(F)F (single isomer, unassigned) [Example 100, hydrochloride salt]
Sorting by Ki in descending order, would a or b appear first? Kindly state the label of the option you pick. a

* * *

molecular target: S1P1 (Homo sapiens); experiment: S1P1 internalization assay in S1P1-U2OS cells (cell imaging); details: U2OS cells expressing S1P1-EGFP, 384-well format
Sequence (P21453 whole entry): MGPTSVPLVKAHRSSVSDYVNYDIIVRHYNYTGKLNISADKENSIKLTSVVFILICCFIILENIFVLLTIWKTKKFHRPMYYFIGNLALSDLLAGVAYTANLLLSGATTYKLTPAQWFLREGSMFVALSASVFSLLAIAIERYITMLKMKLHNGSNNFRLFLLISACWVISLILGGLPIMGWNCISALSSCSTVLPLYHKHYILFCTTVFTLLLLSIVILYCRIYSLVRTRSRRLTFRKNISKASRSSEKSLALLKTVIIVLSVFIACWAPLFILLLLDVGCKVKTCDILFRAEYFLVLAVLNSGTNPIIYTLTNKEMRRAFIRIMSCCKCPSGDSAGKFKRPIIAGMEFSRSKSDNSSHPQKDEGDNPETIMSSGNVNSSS
Where a name gives a salt, the structure may show the parent alone.
ASSAY_ENDPOINT: EC50 (nM)

// solved cases for EC50 follow
[
  {
    "COMPOUND": "Cc1cc(-c2nc(-c3cccc(C(C)NCC(=O)O)c3)no2)ccc1-c1ccccc1C(F)(F)F (centres unmarked) [Example 38, hydrochloride salt]",
    "QUANTITATIVE_RESULT": 77.9
  },
  {
    "COMPOUND": "Cc1ccccc1-c1ccc(-c2nc(-c3ccc([C@@H](C)N[C@H](C)C(=O)O)cc3)no2)cc1C(F)(F)F [Example 20, hydrochloride salt]",
    "QUANTITATIVE_RESULT": 7.57
  },
  {
    "COMPOUND": "Cc1cc(-c2nc(-c3ccc([C@H](C)N[C@H](C)C(=O)O)cc3)no2)ccc1-c1ccccc1C(F)(F)F (racemic)",
    "QUANTITATIVE_RESULT": 28.1
  },
  {
    "COMPOUND": "Cc1ccccc1-c1ccc(-c2nc(-c3ccc(CN(C)C(C(=O)O)C(C)O)cc3)no2)cc1C(F)(F)F (centres unmarked)",
    "QUANTITATIVE_RESULT": 106
  },
  {
    "COMPOUND": "Cc1ccccc1-c1ccc(-c2nc(-c3cc(F)cc(CN[C@@H](CC(C)C)C(=O)O)c3)no2)cc1C(F)(F)F [Example 12, hydrochloride salt]",
    "QUANTITATIVE_RESULT": 28.9
  }
]

[I] Cc1ccccc1-c1ccc(-c2nc(-c3ccc(CN(C)[C@H](C)C(=O)O)cc3)no2)cc1C(F)(F)F
[II] Cc1ccccc1-c1ccc(-c2nc(-c3ccc(CN(C)C(C)(C)C(=O)O)cc3)no2)cc1C(F)(F)F
[III] Cc1ccccc1-c1ccc(-c2nc(-c3ccc(CN[C@H](C)C(=O)O)cc3)no2)cc1C(F)(F)F
[IV] Cc1ccccc1-c1ccc(-c2nc(-c3ccc(CNCC(C)C(=O)O)cc3)no2)cc1C(F)(F)F (centres unmarked)
[V] Cc1ccccc1-c1ccc(-c2nc(-c3ccc(CN(C)C(C)(CO)C(=O)O)cc3)no2)cc1C(F)(F)F (centres unmarked)
Hey, can you sort those compounds up there by EC50, smallest first? Would you mind listing the labels in the order requested? IV, I, III, V, II

* * *

target: UniProt:P21453; assay: Receptor binding assay, [33P]sphingosine 1-phosphate competition, membranes of CHO cells expressing S1P1; settings: 384 well plate; read-out: S1P1 Binding Ki [M] (384 well plate)
Sequence (P21453 whole entry, species assumed): as the sequence (P21453 whole entry) above
Structures can show the parent of a compound that is named as a salt.
ASSAY_ENDPOINT: Ki (M)

// solved cases for Ki follow
[
  {
    "MOLECULE": "Cc1ccccc1-c1ccc(-c2nc(-c3ccc(CN[C@@H](CCO)C(=O)O)cc3)no2)cc1C(F)(F)F",
    "MEASURE_UNIT": "M",
    "Ki": "3.46e-09"
  },
  {
    "MOLECULE": "Cc1ccccc1-c1ccc(-c2nc(-c3ccc([C@H](C)N(C)CC(=O)O)cc3)no2)cc1C(F)(F)F [Example 34, hydrochloride salt]",
    "MEASURE_UNIT": "M",
    "Ki": "4.47e-09"
  },
  {
    "MOLECULE": "COCc1cc(-c2nc(-c3ccc(CNC(C)(C)C(=O)O)c(F)c3)no2)ccc1-c1ccccc1C [Example 16, hydrochloride salt]",
    "MEASURE_UNIT": "M",
    "Ki": "1.23e-09"
  }
]

[1] Cc1ccccc1-c1ccc(-c2nc(-c3cccc(CN(C)[C@@H](C)C(=O)O)c3)no2)cc1C(F)(F)F
[2] Cc1cc(-c2nc(-c3ccc([C@H](C)N[C@H](C)C(=O)O)cc3)no2)ccc1-c1ccccc1C(F)(F)F (racemic)
[3] Cc1ccccc1-c1ccc(-c2nc(-c3ccc(CNC(C)(C)C(=O)O)cc3)no2)cc1C(F)(F)F
[4] Cc1cc(-c2nc(-c3cccc(C(C)N(C)[C@@H](C)C(=O)O)c3)no2)ccc1-c1ccccc1C(F)(F)F (stereo partly shown) [Example 28, hydrochloride salt]
Place the items in sequence of falling Ki. Would you mind listing the labels in the order requested? 4, 3, 2, 1
(4: 1.38e-08 M, 3: 5.69e-09 M, 2: 2.59e-09 M, 1: 1.72e-09 M)

[1] Cc1cc(-c2nc(-c3ccc([C@@H](C)NCC(=O)O)cc3)no2)ccc1-c1ccccc1C(F)(F)F [Example 8, hydrochloride salt]
[2] Cc1ccccc1-c1ccc(-c2nc(-c3cccc(C(C)NCC(=O)O)c3)no2)cc1C(F)(F)F (stereo not shown) [Example 42, hydrochloride salt]
[3] COCc1cc(-c2nc(-c3ccc(C(C)N(C)CC(=O)O)cc3)no2)ccc1-c1ccccc1C (stereo not shown) [Example 15, hydrochloride salt]
Hey, can you sort those molecules up there by Ki, smallest first? Would you mind listing the labels in the order requested? 2, 3, 1
(2: 1.02e-09 M, 3: 1.98e-09 M, 1: 3.68e-09 M)

* * *

molecular target: S1P1 (Homo sapiens); assay: Receptor binding assay, [33P]sphingosine 1-phosphate competition, membranes of CHO cells expressing S1P1; settings: 96 well plate; read-out: S1P1 Binding Ki [M] (96 well plate)
Counter-ions that a name gives are not always drawn.
ASSAY_ENDPOINT: Ki (M)

[
  {
    "COMPOUND": "Cc1ccccc1-c1ccc(-c2nc(-c3ccc([C@H](CO)N[C@H](C)C(=O)O)cc3)no2)cc1C(F)(F)F (single isomer, unassigned) [Example 100, hydrochloride salt]",
    "EXPERIMENTAL_SYSTEM": "S1P1 (Homo sapiens)",
    "Ki [M]": "1.09e-09"
  }
]

[P] Cc1ccccc1-c1ccc(-c2nc(-c3ccc([C@@H](CO)N[C@H](C)C(=O)O)cc3)no2)cc1C(F)(F)F (single isomer, unassigned) [Example 99, hydrochloride salt]
[Q] Cc1ccccc1-c1ccc(-c2nc(-c3cccc(CCN[C@H](C)C(=O)O)c3)no2)cc1C(F)(F)F
Sorting by Ki in descending order, would P or Q appear first? Kindly state the label of the option you pick. P

[I] Cc1ccccc1-c1ccc(-c2nc(-c3cccc(CCN[C@@H](C)C(=O)O)c3)no2)cc1C(F)(F)F
[II] Cc1cc(-c2nc(-c3ccc([C@@H](C)NCC(=O)O)cc3)no2)ccc1-c1ccccc1C(F)(F)F [Example 8, hydrochloride salt]
Of I and II , whose reported Ki is numerically smaller? Kindly state the label of the option you pick. I
(I: 1.85e-10 M, II: 9.13e-10 M)

* * *

target: UniProt:P21453; assay: Receptor binding assay, [33P]sphingosine 1-phosphate competition, membranes of CHO cells expressing S1P1; conditions: 96 well plate; read-out: S1P1 Binding Ki [M] (96 well plate)
Counter-ions that a name gives are not always drawn.
ASSAY_ENDPOINT: Ki (M)

[I] COCc1cc(-c2nc(-c3ccc([C@H](C)N(C)CC(=O)O)cc3)no2)ccc1-c1ccccc1C [Example 98, hydrochloride salt]
[II] Cc1cc(-c2nc(-c3ccc([C@@H](C)N[C@H](C)C(=O)O)cc3)no2)ccc1-c1ccccc1C(F)F [Example 2, hydrochloride salt]
Of I and II , whose reported Ki is numerically smaller? Kindly state the label of the option you pick. II
(II: 2.8e-10 M, I: 6.2e-10 M)
